Tested on: Leishmania donovani
Experiment: Leishmania intramacrophage assay
Format: functional, organism-based
Set-up: scale not given: in the data most compounds retested in dose-response had high values
Conditions: 30.3 µM; […]
Hit rate of the full screen: of about 69,000 compounds, about 1,000 (1.4%) showed an effect of 50% or more. The full list was thinned out, with strong results kept by preference.
Reported Property: Percent Effect (%)
Please state the figure in %; there is no need to write the unit.

C[C@H]1C[C@H]2CN(Cc3ccccn3)CC[C@@H]2O1.O=C(O)C(F)(F)F.O=C(O)C(F)(F)F | 19.92
Fc1cccc(CN2C[C@@H]3CN(c4ncccn4)C[C@@H]3C2)c1.O=C(O)C(F)(F)F.O=C(O)C(F)(F)F | 8.696
COc1ccnc(N2C[C@@H]3CC[C@H](C2)N(CC2CC2)C3)n1 | 37.63

Ask: Reported Percent Effect for CNS(=O)(=O)CC(=O)NC(C)Cc1ccccc1Br (stereo not drawn) : what is it?
Reply: 6.804

Ask: Reported Percent Effect for `Cc1noc(C)c1CN1C[C@H]2CN(Cc3cccc(F)c3)C[C@H]2C1.O=C(O)C(F)(F)F.O=C(O)C(F)(F)F` : what is it?
Reply: 50.84

Ask: Reported Percent Effect for `CN1CC[C@@H]2OC[C@H](C(=O)N(C)Cc3ccccn3)C[C@@H]2C1.O=C(O)C(F)(F)F.O=C(O)C(F)(F)F` : what is it?
Reply: 55.09

Ask: Reported Percent Effect for `Cc1ccc(CN2C[C@@H]3[C@@H](C2)OCC(=O)N3Cc2ccncc2)s1.O=C(O)C(F)(F)F.O=C(O)C(F)(F)F` : what is it?
Reply: 15.08

Ask: Reported Percent Effect for CNC(C)Cc1ccccc1Sc1ccc(O)cc1.Cl (stereo not drawn) : what is it?
Reply: 66.06

----------
System: Leishmania donovani
Assay: Leishmania intramacrophage assay
Format: functional, organism-based
Set-up: scale not given: in the data most compounds retested in dose-response had high values
Details: 30.3 µM; […]
Out of some 69,000 compounds screened, about 1,000 (1.4%) showed an effect of 50% or more. Only a selection was taken, and strong results are over-represented in it overall.
Parameter Percent Effect: see the listing below.
Please state the figure in %; there is no need to write the unit.

For orientation, consider the following solved cases.
Cc1cnc(C(=O)N2C[C@H]3CN(Cc4cccnc4)C[C@H]3C2)cn1.O=C(O)C(F)(F)F.O=C(O)C(F)(F)F | 19.7
CC(C)NC(=O)[C@H]1C[C@H]2NCCO[C@@H]2C1 | 20.26

The record that follows has no Percent Effect shown yet.
Ask: Reported Percent Effect for `CC(C)(CNc1ccc(C#N)c(C(F)(F)F)c1)C(N)=O` : what is it?
Reply: 20.21
